testDetails: DVS and isotherm curves, moisture absorption
Assay type: physicochemical

{"compound": "C=CC(=O)N1CCc2c(c(-c3ccnc4[nH]ccc34)nn2C)C1 [crystal form I]", "moisture absorption rate": "about 2.4%"}
{"compound": "C=CC(=O)N1CCc2c(c(-c3ccnc4[nH]ccc34)nn2C)C1 [crystal form VII]", "moisture absorption rate": "about 1.3%"}
{"compound": "C=CC(=O)N1CCc2c(c(-c3ccnc4[nH]ccc34)nn2C)C1 [crystal form VIII]", "moisture absorption rate": "about 1.3%"}
{"compound": "C=CC(=O)N1CCc2c(c(-c3ccnc4[nH]ccc34)nn2C)C1 [crystal form II]", "moisture absorption rate": "about 2.4%"}

###

testDetails: Solubility at different pH values
Format: physicochemical
conditionNotes: aqueous solution of pH 4.5, aqueous buffer, thermodynamic from solid, pH 4.5, 32° C.

{"compound": "C=CC(=O)N1CCc2c(c(-c3ccnc4[nH]ccc34)nn2C)C1 [crystal form I]", "solubility at 24 h (µg/mL)": 68.6}

###

testDetails: Solubility at different pH values
Type: physicochemical
conditionNotes: aqueous solution of pH 2.0, simulated gastric fluid, thermodynamic from solid, pH 2.0, 32° C.
measuredAttribute: solubility at 24 h

{"compound": "C=CC(=O)N1CCc2c(c(-c3ccnc4[nH]ccc34)nn2C)C1 [crystal form I]", "measurement": "2740 µg/mL"}

###

testDetails: Solubility at different pH values
Assay type: physicochemical
conditionNotes: thermodynamic from solid, water, 32° C.
measuredAttribute: solubility at 24 h (µg/mL)

{"molecule": "C=CC(=O)N1CCc2c(c(-c3ccnc4[nH]ccc34)nn2C)C1 [crystal form I]", "resultUnit": "µg/mL", "measurement": 53.2}
